Protocol notes: lowers stimulated NF-kB luciferase signal in 697 B cells – cell-based, luminescence, uHTS, B-cell NF-kB inhibitor project, primary screen (AID 435022)
Run conditions: 697 B-cell NF-kB luciferase reporter, PMA/ionomycin, 16 h; at 4 µM
The whole screen tested about 330,000 compounds, of which about 1,100 (0.33%) were called active. Rule as the data show it: active = inhibition above about 35%; inactive = the rest. The sample as a whole holds a higher share of actives than the screen did.
Write down the outcome that applies. Available outcomes: T (active), F (inactive)

Compound	Class label
CCCCCCCCCCCCn1ccc(=N)cc1	T
CN1C2C=C(N(C(=O)c3ccc(Cl)cc3)c3ccccc3)CC1CC2 (centres undefined)	F
COc1cc(-n2c(=S)[nH]c3ccc(C)cc3c2=O)c(Cl)cc1Cl	F

Query compound follows.
Name the outcome recorded for COC(=O)COc1cc(C)cc2oc(=O)c3c(c12)CCCC3 in the assay.
F
